- Method Notes: Pharmacokinetics in beagles, multiple-dose regimen (once per day for 7 days) of TRQI or TRQC, plasma LC-MS/MS
- Format: in vivo
- Condition Details: female, beagle, dog, po, 0.09 g/kg, TRQC 0.09 g/kg for 7 days, beagle No. 5
Listing of recorded AUC(0-inf) by entry.
Give the quantity in ng·h/mL, number only.

O=C(O)[C@H]1O[C@@H](Oc2cc3oc(-c4ccccc4)cc(=O)c3c(O)c2O)[C@H](O)[C@@H](O)[C@@H]1O: 398

Value lookup for AUC(0-inf); key = O=C(/C=C/c1ccc(O)c(O)c1)O[C@@H]1C[C@](O)(C(=O)O)C[C@@H](O)[C@H]1O 13.3

Form field: reported AUC(0-inf) of C[C@H](CCC(=O)O)[C@H]1CC[C@H]2[C@@H]3[C@@H](O)C[C@@H]4C[C@H](O)CC[C@]4(C)[C@H]3CC[C@]12C 20100

# lookup: AUC(0-inf) of C[C@H](CCC(=O)O)[C@H]1CC[C@H]2[C@@H]3[C@H](O)C[C@@H]4C[C@H](O)CC[C@]4(C)[C@H]3CC[C@]12C 1960

Numbers sourced from paper PMC9721025.
